I'd appreciate it if you could supply fold induction at 0.016 mg/ml values for the items below.
Assay explanation: Genotoxicity in Salmonella typhimurium TA1535 harboring pSK1002 assessed as umu gene induction at 0.016 mg/ml in absence of Sprague-Dawley rat liver S9 fraction after by SOS/umu assay relative to control
Format: toxicity, organism-based
Setup conditions: salmonella enterica subsp. enterica serovar typhimurium, read-out: FC
Lab note: record the figure alone, no unit after it.

[ask] Give the measured fold induction at 0.016 mg/ml of COc1ccccc1N1CCN(CCC(O)c2ccc(F)cc2)CC1 (stereo in doubt; 66) .
[reply] 1

[ask] Give the measured fold induction at 0.016 mg/ml of COc1ccccc1C1=CCN(CCC(O)c2ccc(F)cc2)CC1 (stereo not drawn) .
[reply] 1

[ask] Give the measured fold induction at 0.016 mg/ml of COC(=O)c1ccc(C(O)CCN2CC=C(c3ccc(F)cc3)CC2)cc1 (stereo not drawn) .
[reply] 1

====

Assay explanation: Genotoxicity in Salmonella typhimurium TA1535 harboring pSK1002 assessed as survival at 0.004 mg/ml in presence of Sprague-Dawley rat liver S9 fraction after by SOS/umu assay relative to control
Type: toxicity, organism-based
Setup conditions: salmonella enterica subsp. enterica serovar typhimurium, read-out: Survival
I'd appreciate it if you could supply viability at 0.004 mg/ml values for the items below.
Please provide the amount together with its unit, number first.

[ask] Give the measured viability at 0.004 mg/ml of OC(CCN1CCN(C(c2ccccc2)c2ccccc2)CC1)c1ccc(F)c2ccccc12 (stereo unspecified) .
[reply] 111%

[ask] Give the measured viability at 0.004 mg/ml of Nc1ccc(N2CCC(NCCC(O)c3ccc(F)c4ccccc34)CC2)c(C(F)(F)F)c1 (stereo unspecified) .
[reply] 116%

[ask] Give the measured viability at 0.004 mg/ml of COc1ccccc1N1CCN(CCC(O)c2ccc(F)cc2)CC1 (stereo in doubt; 66) .
[reply] 93.1%

[ask] Give the measured viability at 0.004 mg/ml of O=[N+]([O-])c1ccc(N2CCN(CCC(O)c3ccc(F)c4ccccc34)CC2)cc1 (stereo unspecified) .
[reply] 109%

[ask] Give the measured viability at 0.004 mg/ml of N#Cc1ccc(C(O)CCN2CC=C(c3ccc(F)cc3)CC2)cc1 (stereo unspecified) .
[reply] 122%

[ask] Give the measured viability at 0.004 mg/ml of OC(CCN1CCN(C(c2ccccc2)c2ccccc2)CC1)c1ccc(Br)cc1 (stereo unspecified) .
[reply] 87.2%

====

Assay explanation: Genotoxicity in Salmonella typhimurium TA1535 harboring pSK1002 assessed as survival at 0.016 mg/ml in presence of Sprague-Dawley rat liver S9 fraction after by SOS/umu assay relative to control
Format: toxicity, organism-based
Setup conditions: salmonella enterica subsp. enterica serovar typhimurium, read-out: Survival
I'd appreciate it if you could supply viability at 0.016 mg/ml values for the items below.
Answer in %, number only, no unit symbol.

[ask] Give the measured viability at 0.016 mg/ml of OC(CCN1CCN(C(c2ccccc2)c2ccccc2)CC1)c1ccc(Br)cc1 (stereo not drawn) .
[reply] 87.8

[ask] Give the measured viability at 0.016 mg/ml of OC(CCN1CC=C(c2ccc(F)cc2)CC1)c1ccc2c(c1)OCO2 (stereo not drawn) .
[reply] 92

[ask] Give the measured viability at 0.016 mg/ml of Nc1ccc(N2CCC(NCCC(O)c3ccc(F)c4ccccc34)CC2)c(C(F)(F)F)c1 (stereo not drawn) .
[reply] 32.4

[ask] Give the measured viability at 0.016 mg/ml of OC(CCN1CCN(C(c2ccccc2)c2ccccc2)CC1)c1ccc(Cl)cc1 (stereo not drawn) .
[reply] 86.6

[ask] Give the measured viability at 0.016 mg/ml of COc1ccccc1C1=CCN(CCC(O)c2ccc(F)cc2)CC1 (stereo not drawn) .
[reply] 78.9

[ask] Give the measured viability at 0.016 mg/ml of OC(CCN1CCN(C(c2ccccc2)c2ccccc2)CC1)c1ccc(F)c(F)c1 (stereo not drawn) .
[reply] 94.9

[ask] Give the measured viability at 0.016 mg/ml of O=[N+]([O-])c1ccc(N2CCN(CCC(O)c3ccc(F)c4ccccc34)CC2)cc1 (stereo not drawn) .
[reply] 117

[ask] Give the measured viability at 0.016 mg/ml of N#Cc1ccc(N2CCC(NCCC(O)c3ccc(F)c4ccccc34)CC2)c(Cl)c1 (stereo not drawn) .
[reply] 38.5

====

I'd appreciate it if you could supply fold induction at 0.031 mg/ml values for the items below.
Assay explanation: Genotoxicity in Salmonella typhimurium TA1535 harboring pSK1002 assessed as umu gene induction at 0.031 mg/ml in presence of Sprague-Dawley rat liver S9 fraction after by SOS/umu assay relative to control
Type: toxicity, organism-based
Setup conditions: salmonella enterica subsp. enterica serovar typhimurium, read-out: FC
Lab note: record the figure alone, no unit after it.

[ask] Give the measured fold induction at 0.031 mg/ml of O=[N+]([O-])c1ccccc1N1CCN(CCC(O)c2ccc(F)c3ccccc23)CC1 (stereo not given) .
[reply] 1.9

[ask] Give the measured fold induction at 0.031 mg/ml of COc1ccccc1C1=CCN(CCC(O)c2ccc(F)c3ccccc23)CC1 (stereo not given) .
[reply] 0.5

[ask] Give the measured fold induction at 0.031 mg/ml of Nc1ccc(N2CCC(NCCC(O)c3ccc(F)c4ccccc34)CC2)c(C(F)(F)F)c1 (stereo not given) .
[reply] 1

[ask] Give the measured fold induction at 0.031 mg/ml of Oc1ccc(C(O)CCN2CC=C(c3ccc(F)cc3)CC2)cc1 (stereo not given) .
[reply] 1.8

[ask] Give the measured fold induction at 0.031 mg/ml of OC(CCN1CC=C(c2ccc(F)cc2)CC1)c1ccc2c(c1)OCO2 (stereo not given) .
[reply] 0.7

[ask] Give the measured fold induction at 0.031 mg/ml of COC(=O)c1ccc(C(O)CCN2CC=C(c3ccc(F)cc3)CC2)cc1 (stereo not given) .
[reply] 0.7

[ask] Give the measured fold induction at 0.031 mg/ml of N#Cc1ccc(N2CCC(NCCC(O)c3ccc(F)c4ccccc34)CC2)c(C(F)(F)F)c1 (stereo in doubt; 72) .
[reply] 0.6

[ask] Give the measured fold induction at 0.031 mg/ml of COc1ccccc1N1CCN(CCC(O)c2ccc(F)cc2)CC1 (stereo in doubt; 66) .
[reply] 0.9

[ask] Give the measured fold induction at 0.031 mg/ml of COc1ccccc1C1=CCN(CCC(O)c2ccc(F)cc2)CC1 (stereo not given) .
[reply] 1

[ask] Give the measured fold induction at 0.031 mg/ml of COc1ccccc1N1CCN(CCC(O)c2ccc(F)c3ccccc23)CC1 (stereo not given) .
[reply] 0.6

====

Assay explanation: Cytotoxicity against human HepG2A16 cells by MTT assay
Format: cell-based
Setup conditions: HepG2A16 cells
I'd appreciate it if you could supply CC50 values for the items below.
Please provide the amount together with its unit, number first.

[ask] Give the measured CC50 of COc1ccc(C(O)CCN2CCN(c3ccccc3OC)CC2)cc1 (stereo not drawn) .
[reply] 371 µM

[ask] Give the measured CC50 of COc1ccccc1N1CCN(CCC(O)c2ccc(F)c3ccccc23)CC1 (stereo not drawn) .
[reply] 30.4 µM

[ask] Give the measured CC50 of OC(CCN1CCN(C(c2ccccc2)c2ccccc2)CC1)c1ccc2c(c1)OCO2 (stereo not drawn) .
[reply] 36.1 µM

[ask] Give the measured CC50 of OC(CCN1CCN(C(c2ccccc2)c2ccccc2)CC1)c1ccc(Br)cc1 (stereo not drawn) .
[reply] 351 µM

[ask] Give the measured CC50 of O=[N+]([O-])c1ccc(N2CCC(NCCC(O)c3ccc(F)c(F)c3)CC2)c(C(F)(F)F)c1 (stereo not drawn) .
[reply] 13.3 µM

[ask] Give the measured CC50 of OC(CCN1CC=C(c2ccc(F)cc2)CC1)c1ccc(Br)cc1 (stereo not drawn) .
[reply] 109 µM

[ask] Give the measured CC50 of COc1ccccc1C1=CCN(CCC(O)c2ccc(F)cc2)CC1 (stereo not drawn) .
[reply] 67 µM

[ask] Give the measured CC50 of COc1ccccc1N1CCN(CCC(O)c2ccc(-c3ccccc3)cc2)CC1 (stereo not drawn) .
[reply] 24.4 µM

[ask] Give the measured CC50 of N#Cc1ccc(C(O)CCN2CC=C(c3ccc(F)cc3)CC2)cc1 (stereo not drawn) .
[reply] 82.4 µM

[ask] Give the measured CC50 of COc1ccccc1N1CCN(CCC(O)c2ccc3ccccc3c2)CC1 (stereo not drawn) .
[reply] 95 µM

[ask] Give the measured CC50 of COc1ccc(C(O)CCN2CC=C(c3ccc(F)cc3)CC2)cc1 (stereo not drawn) .
[reply] 152 µM

[ask] Give the measured CC50 of OC(CCN1CC=C(c2ccc(F)cc2)CC1)c1ccc(F)c(Cl)c1 (stereo not drawn) .
[reply] 54.1 µM

[ask] Give the measured CC50 of O=[N+]([O-])c1ccc(N2CCC(NCCC(O)c3ccccc3)CC2)c(C(F)(F)F)c1 (stereo not drawn) .
[reply] 27.6 µM

[ask] Give the measured CC50 of OC(CCN1CC=C(c2ccc(F)cc2)CC1)c1ccc2c(c1)OCO2 (stereo not drawn) .
[reply] 165 µM

[ask] Give the measured CC50 of OC(CCN1CCN(c2ccccc2C(F)(F)F)CC1)c1ccc(F)cc1 (stereo not drawn) .
[reply] 1.35 µM

[ask] Give the measured CC50 of COc1ccc(C(O)CCN2CC=C(c3ccc(F)cc3)CC2)c(OC)c1 (stereo not drawn) .
[reply] 91.4 µM

[ask] Give the measured CC50 of OC(CCN1CCN(C(c2ccccc2)c2ccccc2)CC1)c1ccc(F)cc1 (stereo not drawn) .
[reply] 252 µM

[ask] Give the measured CC50 of OC(CCN1CCN(C(c2ccccc2)c2ccccc2)CC1)c1ccc(F)c2ccccc12 (stereo not drawn) .
[reply] 19.9 µM
